Target: human DOR (Homo sapiens)
Experiment Description: biochemical
Readout Name: EC50 (nM)

| Line Notation | Target | Observed Measurement |
| --- | --- | --- |
| COc1ccc(CN2CCc3ccccc3C2)cc1CNC(=O)[C@@H](N)Cc1c(C)cc(O)cc1C | human DOR (Homo sapiens) | 5 |

====

Target: human DOR (Homo sapiens, UniProt P41143)
Experiment Description: biochemical
Type: binding
Condition Details: read-out: Binding Affinity, Ki DOR; Table 4; simple core compounds; mean ± SEM
pKi: −log10 of the molar value.
Readout Name: pKi

| Line Notation | Target | Observed Measurement |
| --- | --- | --- |
| Cc1cc(O)cc(C)c1C[C@H](N)C(=O)NCCN(C)CCN1CCc2ccccc2C1.O=C(O)C(F)(F)F | human DOR (Homo sapiens, UniProt P41143) | 7.11 |

====

Target: human KOR (Homo sapiens)
Assay type: binding

| Line Notation | Unit Name | Ki |
| --- | --- | --- |
| Cc1cc(O)cc(C)c1C[C@H](N)C(=O)N1CCC(CCN2CCc3ccccc3C2)CC1.O=C(O)C(F)(F)F | nM | 21 |
| Cc1cc(O)cc(C)c1C[C@H](N)C(=O)NCc1cccc(CN2CCc3ccccc3C2)c1.O=C(O)C(F)(F)F | nM | 46.3 |
| Cc1cc(O)cc(C)c1C[C@H](N)C(=O)NCCCCCN1CCc2ccccc2C1.O=C(O)C(F)(F)F | nM | 44.2 |
| COc1ccc(CN2CCc3ccccc3C2)cc1CNC(=O)[C@@H](N)Cc1c(C)cc(O)cc1C | nM | 28.4 |
| Cc1cc(O)cc(C)c1C[C@H](N)C(=O)NCc1cc(CN2CCc3ccccc3C2)ccc1OCC1CC1.O=C(O)C(F)(F)F | nM | 23.5 |
| COc1ccc(CN2CCCCC2)cc1CNC(=O)[C@@H](N)Cc1c(C)cc(O)cc1C.O=C(O)C(F)(F)F | nM | 23.5 |

====

Target: UniProt P41143
Experiment Description: biochemical
Condition Details: read-out: Efficacy DOR, percent maximal stimulation
Tag: met if measured Emax is not below 30%, not met if it is.

| Line Notation | Category Label |
| --- | --- |
| Cc1cc(O)cc(C)c1C[C@H](N)C(=O)NCc1cc(CN2CCCCC2)ccc1OCC1CC1.O=C(O)C(F)(F)F | not met |
| CCCOc1ccc(CN2CCCCC2)cc1CNC(=O)[C@@H](N)Cc1c(C)cc(O)cc1C.O=C(O)C(F)(F)F | met |
| Cc1cc(O)cc(C)c1C[C@H](N)C(=O)NCc1cccc(CN2CCc3ccccc3C2)c1.O=C(O)C(F)(F)F | met |
| COc1ccc(CN2CCCCC2)cc1CNC(=O)[C@@H](N)Cc1c(C)cc(O)cc1C.O=C(O)C(F)(F)F | met |

====

Target: human MOR (Homo sapiens)
Experiment Description: biochemical
Condition Details: read-out: Efficacy (% Stimulation) MOR, Table 5; relative to DAMGO at 10 μM
Readout Name: Emax (%)

| Line Notation | Observed Measurement |
| --- | --- |
| Cc1cc(O)cc(C)c1C[C@H](N)C(=O)NCC(=O)NCCN1CCc2ccccc2C1.O=C(O)C(F)(F)F | 86.6 |
| Cc1cc(O)cc(C)c1C[C@H](N)C(=O)N1CCN(CCN2CCc3ccccc3C2)CC1.O=C(O)C(F)(F)F | 70 |
| Cc1cc(O)cc(C)c1C[C@H](N)C(=O)NCCOCCN1CCc2ccccc2C1.O=C(O)C(F)(F)F | 90.7 |
| Cc1cc(O)cc(C)c1C[C@H](N)C(=O)N1CCC(CCN2CCc3ccccc3C2)CC1.O=C(O)C(F)(F)F | 73 |
| Cc1cc(O)cc(C)c1C[C@H](N)C(=O)NCc1cccc(CN2CCc3ccccc3C2)c1.O=C(O)C(F)(F)F | 126 |
| Cc1cc(O)cc(C)c1C[C@H](N)C(=O)NCC(=O)N(C)CCN1CCc2ccccc2C1.O=C(O)C(F)(F)F | 53 |
| Cc1cc(O)cc(C)c1C[C@H](N)C(=O)NCCCCCN1CCc2ccccc2C1.O=C(O)C(F)(F)F | 80.8 |

====

Target: human KOR (Homo sapiens, UniProt P41145)
Experiment Description: [35S]-GTPγS binding assay, CHO-KOR membranes
Assay type: biochemical
Condition Details: Table 5; relative to U69,593 at 10 μM; DNS = does not stimulate

| Line Notation | Efficacy (% Stimulation) KOR |
| --- | --- |
| Cc1cc(O)cc(C)c1C[C@H](N)C(=O)NCCOCCN1CCc2ccccc2C1.O=C(O)C(F)(F)F | 22.0±3.8% |
| Cc1cc(O)cc(C)c1C[C@H](N)C(=O)NCCN(C)CCN1CCc2ccccc2C1.O=C(O)C(F)(F)F | 43.0±2.5% |
| Cc1cc(O)cc(C)c1C[C@H](N)C(=O)NCCCCCN1CCc2ccccc2C1.O=C(O)C(F)(F)F | DNS |
| Cc1cc(O)cc(C)c1C[C@H](N)C(=O)N1CCC(CCN2CCc3ccccc3C2)CC1.O=C(O)C(F)(F)F | DNS |
| Cc1cc(O)cc(C)c1C[C@H](N)C(=O)NCc1cccc(CN2CCc3ccccc3C2)c1.O=C(O)C(F)(F)F | DNS |
| Cc1cc(O)cc(C)c1C[C@H](N)C(=O)NCC(=O)N(C)CCN1CCc2ccccc2C1.O=C(O)C(F)(F)F | DNS |
| Cc1cc(O)cc(C)c1C[C@H](N)C(=O)NCC(=O)NCCN1CCc2ccccc2C1.O=C(O)C(F)(F)F | DNS |
| Cc1cc(O)cc(C)c1C[C@H](N)C(=O)N1CCN(CCN2CCc3ccccc3C2)CC1.O=C(O)C(F)(F)F | DNS |
| Cc1cc(O)cc(C)c1C[C@H](N)C(=O)NCCOCC(=O)N1CCc2ccccc2C1.O=C(O)C(F)(F)F | DNS |

====

Target: UniProtKB P35372
Experiment Description: biochemical
Readout Name: EC50 (nM)

| Line Notation | Readout Name | Unit Name | Comparative Sign | Observed Measurement |
| --- | --- | --- | --- | --- |
| Cc1cc(O)cc(C)c1C[C@H](N)C(=O)NCc1cc(CN2CCc3ccccc3C2)ccc1OCC1CC1.O=C(O)C(F)(F)F | EC50 | nM | = | 1.6 |
| Cc1cc(O)cc(C)c1C[C@H](N)C(=O)NCc1cccc(CN2CCc3ccccc3C2)c1.O=C(O)C(F)(F)F | EC50 | nM | = | 6.1 |
| Cc1cc(O)cc(C)c1C[C@H](N)C(=O)NCc1cccc(CN2CCCCC2)c1.O=C(O)C(F)(F)F | EC50 | nM | > | 740 |
| Cc1cc(O)cc(C)c1C[C@H](N)C(=O)N1CCN(CCN2CCc3ccccc3C2)CC1.O=C(O)C(F)(F)F | EC50 | nM | = | 56 |

====

Target: human KOR (Homo sapiens)
Assay type: binding
Condition Details: read-out: Binding Affinity, Ki KOR; Table 4; simple core compounds; mean ± SEM
pKi: −log10 of the molar value.

| Line Notation | pKi |
| --- | --- |
| Cc1cc(O)cc(C)c1C[C@H](N)C(=O)NCCN(C)CCN1CCc2ccccc2C1.O=C(O)C(F)(F)F | 8.07 |

====

Target: human MOR (Homo sapiens, UniProt P35372)
Experiment Description: biochemical
Condition Details: read-out: Potency, EC50 MOR; Table 5; [35S]GTPγS stimulation
pEC50: −log10 of the molar value.
Readout Name: pEC50

| Line Notation | Observed Measurement |
| --- | --- |
| Cc1cc(O)cc(C)c1C[C@H](N)C(=O)NCCN(C)CCN1CCc2ccccc2C1.O=C(O)C(F)(F)F | 7.62 |

====

Target: human DOR (Homo sapiens, UniProt P41143)
Experiment Description: biochemical
Condition Details: Table 5; relative to DPDPE at 10 μM; DNS = does not stimulate
Readout Name: Efficacy (% Stimulation) DOR

| Line Notation | Observed Measurement |
| --- | --- |
| Cc1cc(O)cc(C)c1C[C@H](N)C(=O)NCCCCCN1CCc2ccccc2C1.O=C(O)C(F)(F)F | DNS |
| Cc1cc(O)cc(C)c1C[C@H](N)C(=O)NCC(=O)NCCN1CCc2ccccc2C1.O=C(O)C(F)(F)F | 36.5±1.2% |
| Cc1cc(O)cc(C)c1C[C@H](N)C(=O)N1CCC(CCN2CCc3ccccc3C2)CC1.O=C(O)C(F)(F)F | DNS |
| Cc1cc(O)cc(C)c1C[C@H](N)C(=O)NCCOCC(=O)N1CCc2ccccc2C1.O=C(O)C(F)(F)F | DNS |
| Cc1cc(O)cc(C)c1C[C@H](N)C(=O)NCc1cccc(CN2CCc3ccccc3C2)c1.O=C(O)C(F)(F)F | 57±6% |
| Cc1cc(O)cc(C)c1C[C@H](N)C(=O)N1CCN(CCN2CCc3ccccc3C2)CC1.O=C(O)C(F)(F)F | DNS |
| Cc1cc(O)cc(C)c1C[C@H](N)C(=O)NCC(=O)N(C)CCN1CCc2ccccc2C1.O=C(O)C(F)(F)F | DNS |
| Cc1cc(O)cc(C)c1C[C@H](N)C(=O)NCCOCCN1CCc2ccccc2C1.O=C(O)C(F)(F)F | 27.4±8.2% |
